# System: NCI-H2141 (Small Cell Lung Carcinoma)
# procedure text: combination Emax (second highest fraction inhibited in the dose matrix, 72 h); higher = more inhibition; extreme values may be limits of the assay
Reported combination Emax is given for each of the following compounds.

compound | combination Emax
NC1(C(=O)N[C@@H](CCO)c2ccc(Cl)cc2)CCN(c2ncnc3[nH]ccc23)CC1 [Capivasertib] + CC(=O)c1c(C)c2cnc(Nc3ccc(N4CCNCC4)cn3)nc2n(C2CCCC2)c1=O [Palbociclib] (first compound max 10 µM, 7x7, partner max 10 µM) | 0.299
CN(C)CCCOc1ccc(-c2ccc3ncc4c(c3c2)n(C2CCOCC2)c(=O)n4C)cn1 [AZD0156] + C[C@@H]1COCCN1C2=NC(=NC(=C2)C3(CC3)[S@](=N)(=O)C)C4=C5C=CNC5=NC=C4 [AZD6738] (first compound max 1 µM, 7x7, partner max 10 µM) | 0.462
CC1(C)CCC(CN2CCN(c3ccc(C(=O)NS(=O)(=O)c4ccc(NCC5CCOCC5)c([N+](=O)[O-])c4)c(Oc4cnc5[nH]ccc5c4)c3)CC2)=C(c2ccc(Cl)cc2)C1 [Venetoclax] + CCN(CCO)CCCOc1ccc2c(Nc3cc(CC(=O)Nc4cccc(F)c4)[nH]n3)ncnc2c1 [AZD2811] (first compound max 1 µM, 7x7, partner max 1 µM) | 0.482
Cn1cnc2c(F)c(Nc3ccc(Br)cc3Cl)c(C(=O)NOCCO)cc21 [Selumetinib] + C[C@@H]1COCCN1C2=NC(=NC(=C2)C3(CC3)[S@](=N)(=O)C)C4=C5C=CNC5=NC=C4 [AZD6738] (first compound max 10 µM, 7x7, partner max 10 µM) | 0.409
Cc1c2c(nn1C)CSCc1cc(n(C)n1)CSc1cc(c3ccccc3c1)OCCCc1c(C(=O)O)n(C)c3c-2c(Cl)ccc13 [AZD5991] + C[C@@H](Nc1cc(F)cc(F)c1)c1cc(C(=O)N(C)C)cc2c(=O)cc(N3CCOCC3)oc12 [AZD8186] (first compound max 1 µM, 7x7, partner max 3 µM) | 0.3
CC1(C)CCC(CN2CCN(c3ccc(C(=O)NS(=O)(=O)c4ccc(NCC5CCOCC5)c([N+](=O)[O-])c4)c(Oc4cnc5[nH]ccc5c4)c3)CC2)=C(c2ccc(Cl)cc2)C1 [Venetoclax] + C[C@@H](Nc1cc(F)cc(F)c1)c1cc(C(=O)N(C)C)cc2c(=O)cc(N3CCOCC3)oc12 [AZD8186] (first compound max 1 µM, 7x7, partner max 3 µM) | 0.361
Cc1c2c(nn1C)CSCc1cc(n(C)n1)CSc1cc(c3ccccc3c1)OCCCc1c(C(=O)O)n(C)c3c-2c(Cl)ccc13 [AZD5991] + Cc1cc2ncnn2cc1Nc1ncc2c(n1)n(C1CCOCC1)c(=O)n2C [AZD7648] (first compound max 1 µM, 7x7, partner max 10 µM) | 0.307
C=CCn1c(=O)c2cnc(Nc3ccc(N4CCN(C)CC4)cc3)nc2n1-c1cccc(C(C)(C)O)n1 [AZD1775] + C[C@@H]1COCCN1C2=NC(=NC(=C2)C3(CC3)[S@](=N)(=O)C)C4=C5C=CNC5=NC=C4 [AZD6738] (first compound max 1 µM, partner max 10 µM) | 0.675

---

# System: NCI-H64 (Small Cell Lung Carcinoma);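 also: after 72 h of two-drug dosing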
# procedure text: Bliss excess, mean over the matrix (fraction); higher = more synergy
Quick list: Bliss excess per entry.
observation type: Bliss excess

compound | system | observation type | observed value
CC(=O)Nc1cccc(-n2c(=O)n(C3CC3)c(=O)c3c(Nc4ccc(I)cc4F)n(C)c(=O)c(C)c32)c1 [Trametinib] + Cc1nc(-c2cn3c(n2)-c2ccc(-c4cnn(C(C)(C)C(N)=O)c4)cc2OCC3)n(C(C)C)n1 [Taselisib] (first compound max 1 µM, 7x7, partner max 10 µM) | NCI-H64 (Small Cell Lung Carcinoma) | Bliss excess | 0.0284
CN(CCO)CC[C@H](CSc1ccccc1)Nc1ccc(S(=O)(=O)NC(=O)c2ccc(N3CCC([C@@H](O)c4ccccc4-c4ccc(Cl)cc4)CC3)cc2)cc1S(=O)(=O)C(F)(F)F [AZD4320] + C=CCn1c(=O)c2cnc(Nc3ccc(N4CCN(C)CC4)cc3)nc2n1-c1cccc(C(C)(C)O)n1 [AZD1775] (first compound max 1 µM, partner max 1 µM) | NCI-H64 (Small Cell Lung Carcinoma) | Bliss excess | 0.0886
CC1(C)CCC(CN2CCN(c3ccc(C(=O)NS(=O)(=O)c4ccc(NCC5CCOCC5)c([N+](=O)[O-])c4)c(Oc4cnc5[nH]ccc5c4)c3)CC2)=C(c2ccc(Cl)cc2)C1 [Venetoclax] + C=CCn1c(=O)c2cnc(Nc3ccc(N4CCN(C)CC4)cc3)nc2n1-c1cccc(C(C)(C)O)n1 [AZD1775] (first compound max 1 µM, partner max 1 µM) | NCI-H64 (Small Cell Lung Carcinoma) | Bliss excess | 0.0168
